Measured values drawn from ChEMBL document CHEMBL1123155 for this set.

# TARGET OR TEST SYSTEM: Serine protease 1 (Homo sapiens)
# Sequence (P07477 whole entry): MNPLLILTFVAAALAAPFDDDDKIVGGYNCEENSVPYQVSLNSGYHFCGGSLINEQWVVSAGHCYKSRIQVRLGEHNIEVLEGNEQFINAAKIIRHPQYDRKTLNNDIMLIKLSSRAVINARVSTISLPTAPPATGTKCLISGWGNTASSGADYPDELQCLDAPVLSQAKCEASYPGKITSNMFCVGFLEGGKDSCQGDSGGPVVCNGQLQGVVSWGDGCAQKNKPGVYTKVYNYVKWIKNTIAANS
# ASSAY INFO: Inhibition of human trypsin and the control activity being 7.3 umol/min/mg
# STATED CONDITIONS: read-out: I50
Lab note: cut-off is 20 nM. Strictly less in IC50 is t. Exactly 20 nM or more is f.

{"SMILES INPUT": "COC(=O)c1ccc(OC(=O)c2ccc(NC(=N)N)cc2)cc1.Cl", "TARGET OR TEST SYSTEM": "Serine protease 1 (Homo sapiens)", "ASSIGNED CATEGORY": "t"}
{"SMILES INPUT": "COC(=O)c1ccccc1OC(=O)c1ccc(NC(=N)N)cc1", "TARGET OR TEST SYSTEM": "Serine protease 1 (Homo sapiens)", "ASSIGNED CATEGORY": "f"}
{"SMILES INPUT": "C=CCc1ccc(OC(=O)c2ccc(NC(=N)N)cc2)c(OC)c1", "TARGET OR TEST SYSTEM": "Serine protease 1 (Homo sapiens)", "ASSIGNED CATEGORY": "t"}
{"SMILES INPUT": "Cc1ccc(C(C)C)c(OC(=O)c2ccc(NC(=N)N)cc2)c1.Cc1ccc(S(=O)(=O)O)cc1", "TARGET OR TEST SYSTEM": "Serine protease 1 (Homo sapiens)", "ASSIGNED CATEGORY": "f"}
{"SMILES INPUT": "CC(=O)Nc1ccc(OC(=O)c2ccc(NC(=N)N)cc2)cc1.Cl", "TARGET OR TEST SYSTEM": "Serine protease 1 (Homo sapiens)", "ASSIGNED CATEGORY": "f"}
{"SMILES INPUT": "CC(C)c1ccc(OC(=O)c2ccc(NC(=N)N)cc2)cc1", "TARGET OR TEST SYSTEM": "Serine protease 1 (Homo sapiens)", "ASSIGNED CATEGORY": "t"}
{"SMILES INPUT": "N=C(N)Nc1ccc(C(=O)Oc2cccc(C(F)(F)F)c2)cc1", "TARGET OR TEST SYSTEM": "Serine protease 1 (Homo sapiens)", "ASSIGNED CATEGORY": "f"}
{"SMILES INPUT": "COc1ccccc1OC(=O)c1ccc(NC(=N)N)cc1", "TARGET OR TEST SYSTEM": "Serine protease 1 (Homo sapiens)", "ASSIGNED CATEGORY": "f"}
{"SMILES INPUT": "CCCCCCc1ccc(OC(=O)c2ccc(NC(=N)N)cc2)cc1O", "TARGET OR TEST SYSTEM": "Serine protease 1 (Homo sapiens)", "ASSIGNED CATEGORY": "t"}
{"SMILES INPUT": "Cl.N=C(N)Nc1ccc(C(=O)Oc2ccccc2C(N)=O)cc1", "TARGET OR TEST SYSTEM": "Serine protease 1 (Homo sapiens)", "ASSIGNED CATEGORY": "f"}
